Kindly supply the reported growth inhibition values for the records listed here.
# protocol.text: NCI Yeast Anticancer Drug Screen. Data for the mec2-1 strain (AID 157)
# test.conditions: S. cerevisiae mec2-1 strain, at 50.0 µM, stronger effect = higher value
The panel holds about 79,000 compounds, 15% with a hit somewhere; the sample as a whole holds those more often.
Use % as the unit, but write only the number.

Respond only with growth inhibition recorded for CCC(=O)Nc1cccc([N+](=O)[O-])c1OC
23.4

Respond only with growth inhibition recorded for CC(=O)Nc1ccccc1Cc1nc2ccccc2c(=O)[nH]1
12.6

Respond only with growth inhibition recorded for CC(=O)NNc1nc(C)c(C(=O)/C=C/C=C/c2ccccc2)s1
39

Respond only with growth inhibition recorded for Cc1ccc2cccc3c2c1CC1(C3=O)S(=O)(=O)OCCOS1(=O)=O
4.45

Respond only with growth inhibition recorded for COc1ccc2c(c1)CCCN2S(=O)(=O)c1ccccc1[N+](=O)[O-]
-3.9

Respond only with growth inhibition recorded for Nc1nc(SCC(=O)O)[nH]c(=O)c1N
30.1

Respond only with growth inhibition recorded for COc1ccc(-n2c(C)c(COC(C)=O)c(COC(C)=O)c2C)cc1
-18.2

Respond only with growth inhibition recorded for CCOP(=O)(OCC)C1=C(P(=O)(OCC)OCC)C(F)(F)C1(F)F
-5

Respond only with growth inhibition recorded for C/C(=N/Nc1ccc([N+](=O)[O-])cc1[N+](=O)[O-])C(CC(C(=O)NCc1ccccc1)/C(C)=N\Nc1ccc([N+](=O)[O-])cc1[N+](=O)[O-])C(=O)NCc1ccccc1 (stereo not given)
-16.5

Respond only with growth inhibition recorded for CC1=NOC(=O)/C1=C/c1ccccc1C
2.55

Sourced from PubChem BioAssay (NCI)
